Biological target: Mu-type opioid receptor (Homo sapiens, UniProt P35372)
Sequence (P35372 whole entry): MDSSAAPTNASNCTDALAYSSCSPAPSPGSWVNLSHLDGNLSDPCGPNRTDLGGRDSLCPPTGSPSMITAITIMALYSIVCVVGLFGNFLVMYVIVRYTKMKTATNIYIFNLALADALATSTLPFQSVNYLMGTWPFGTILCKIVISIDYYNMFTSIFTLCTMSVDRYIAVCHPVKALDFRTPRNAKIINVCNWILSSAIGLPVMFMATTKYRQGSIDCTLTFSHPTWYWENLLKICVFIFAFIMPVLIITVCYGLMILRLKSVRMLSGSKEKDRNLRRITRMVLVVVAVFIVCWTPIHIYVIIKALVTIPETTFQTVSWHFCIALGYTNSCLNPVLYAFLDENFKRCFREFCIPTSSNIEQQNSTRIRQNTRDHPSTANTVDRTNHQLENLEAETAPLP
experimental endpoint: pKi
Friendly reminder that pKi comes from taking -log10 of the concentration in mol/L.

Report pKi for OCCN1CCN(CCCN2c3ccccc3Sc3ccc(C(F)(F)F)cc32)CC1 [FLUPHENAZINE] tested on Mu-type opioid receptor (Homo sapiens, UniProt P35372). 5.07

Next molecule: C#C[C@]1(O)CC[C@H]2[C@@H]3CCc4cc(O)ccc4[C@H]3CC[C@@]21C [ETHINYL ESTRADIOL] 4.96

Do the same for CC(=O)O[C@]1(C(C)=O)CC[C@H]2[C@@H]3C=C(Cl)C4=CC(=O)[C@@H]5C[C@@H]5[C@]4(C)[C@H]3CC[C@@]21C [CYPROTERONE ACETATE] please 6.05

// next record C#C[C@]1(O)CC[C@H]2[C@@H]3CCC4=Cc5oncc5C[C@]4(C)[C@H]3CC[C@@]21C [DANAZOL] 5.24

FYI, the data here is from ChEMBL document CHEMBL1909046.
